tested on: MiaPaCa-2 pancreatic cancer cells; test: hexoseaminidase cell proliferation assay, MiaPaCa-2; type: cell-based; conditions: MiaPaCa-2, 72 h
Readout name: pIC50
The scale used: pIC50 is minus the common logarithm of the concentration in molar units.

Example entries and their recorded answers appear below.
Molecule	Quantitative readout
C/C(=N\NC(=O)c1cc2ccccc2cc1O)c1ccc2ccccc2c1O [MRL20]	5.10
O=C(N/N=C/c1cc(F)cc(F)c1)c1cc2ccccc2cc1O [MRL RFB]	4.46
O=C(N/N=C/c1ccc2ccccc2c1O)c1cc2ccccc2cc1O [NAL]	5.22
O=C(N/N=C/c1ccc(F)c(F)c1)c1cc2ccccc2cc1O [MRL DFB]	4.77
O=C(N/N=C/c1ccccc1O)c1cc2ccccc2cc1O [SAL]	5.10

Q) Recall the reported pIC50 of C/C(=N\NC(=O)c1ccco1)c1ccc2ccccc2c1O [MRL21] when tested on MiaPaCa-2 pancreatic cancer cells.
A) 5.30

* * *

Reported IC50 values follow for various compounds
test system: MiaPaCa-2 pancreatic cancer cells; experiment: hexoseaminidase cell proliferation assay, MiaPaCa-2; type: cell-based; settings: Homo sapiens, MIA PaCa-2; MiaPaCa-2, 48 h

Sample records with IC50:
Compound	Result
C/C(=N\NC(=O)c1cccnc1)c1ccc2ccccc2c1O [MRL17]	> 10 µM
C/C(=N\NC(=O)Cc1cc2ccccc2[nH]1)c1ccc2ccccc2c1O [MRL22]	> 10 µM

Q) Fill in reported IC50 for this entry: C/C(=N\NC(N)=S)c1ccc2ccccc2c1O [MRL23]
A) 5 µM

Q) Note down IC50 recorded for C/C(=N\NC(=O)c1cc2ccccc2cc1O)c1cc2ccccc2oc1=O [COU]
A) > 50 µM

Q) Please supply the value of reported IC50 for the item C/C(=N\NC(=O)c1ccncc1)c1ccc2ccccc2c1O [MRL16]
A) > 10 µM

* * *

test system: 253JBV bladder cancer cells; assay: hexoseaminidase cell proliferation assay, 253JBV; assay type: cell-based; settings: 24 h
Readout name: IC50 (µM)
Enter your answer as a number in µM; do not include the unit.

Q) Name the recorded IC50 of the molecule listed here: CC(C)(C)C1=CC(=NNC(=O)c2cc3ccccc3cc2O)C=C(C(C)(C)C)C1=O [DBQ]
A) 50

* * *

test system: SW480 colon cancer cells; test: hexoseaminidase cell proliferation assay, SW480; type: cell-based; settings: SW480, 72 h
Readout name: IC50 (µM)
Write it as a number; the unit µM goes unstated.

Substance smiles	IC50, µM
O=C(N/N=C/c1ccc(F)c(F)c1)c1cc2ccccc2cc1O	18

Q) Give me measured IC50, please, for this compound: `O=C(N/N=C/c1ccc2ccccc2c1O)c1cc2ccccc2cc1O`
A) 8

Q) Could you please provide reported IC50 for `O=C(N/N=C/c1ccc(O)c(O)c1)c1cc2ccccc2cc1O` ? Thanks!
A) 15

Q) Return IC50 (reported value) for this compound: `C/C(=N\NC(=O)c1cc2ccccc2cc1O)c1ccc2ccccc2c1O`
A) 1

Q) Quote IC50 reported for `O=C(N/N=C/c1ccc(O)c(O)c1O)c1cc2ccccc2cc1O` please.
A) 10

* * *

A collection of compounds and their measured log10(IC50)
test system: HCT116 colon cancer cells; experiment: hexoseaminidase cell proliferation assay, HCT116; type: cell-based; details: HCT116, 48 h
Hey, these are logged values: log10 of IC50, µM being the unit before logging.

Some solved entries appear below for comparison.
Compound	Target	log10(IC50)
C/C(=N\NC(=O)c1ccco1)c1ccc2ccccc2c1O [MRL21]	HCT116 colon cancer cells	0.58
O=C(N/N=C/c1ccc(O)c(O)c1O)c1cc2ccccc2cc1O [MRL THB]	HCT116 colon cancer cells	1.00
O=C(N/N=C/c1cc(F)cc(F)c1)c1cc2ccccc2cc1O [MRL RFB]	HCT116 colon cancer cells	1.54

Q) Identify measured log10(IC50) corresponding to O=C(N/N=C/c1ccccc1O)c1cc2ccccc2cc1O [SAL]
A) 0.90

Q) Supply log10(IC50) value. Item: C/C(=N\NC(=O)c1cc2ccccc2cc1O)c1ccc2ccccc2c1O [MRL20]
A) -0.30
